Ref: ChEMBL document CHEMBL1143257

- Test system: Human immunodeficiency virus 1
- PROTOCOL_SUMMARY: Antiviral activity against multidrug resistant HIV1
- Type: functional, organism-based
MEASURED_ATTRIBUTE: pIC50
Interpret pIC50 as the negative base-10 log of the concentration measured in mol/L.

Entry `COc1cccc(C[C@H](NC(=O)c2cccc(N)c2Cl)[C@H](O)C(=O)N2CSC(C)(C)[C@H]2C(=O)NCc2c(C)cccc2C)c1` has what pIC50?
7.66

---

- PROTOCOL_SUMMARY: Metabolic stability in human liver microsomes assessed as compound remaining at 5 uM in presence of NADPH by RP-HPLC
- Assay type: ADME, Microsome
- EXPERIMENTAL_PARAMETERS: read-out: Stability
Note to self: use 1 (yes) only for remaining at 5 µM readings below 60%; a reading exactly at 60% still gets 0 (no).

COMPOUND	ASSIGNED_CATEGORY
Cc1ccccc1CNC(=O)[C@H]1N(C(=O)[C@@H](O)[C@H](Cc2ccccc2)NC(=O)c2cccc(O)c2C)CSC1(C)C	1 (yes)
COc1cccc(C[C@H](NC(=O)c2cccc(N)c2Cl)[C@H](O)C(=O)N2CSC(C)(C)[C@H]2C(=O)NCc2ccccc2C)c1	0 (no)
COc1cccc(C[C@H](NC(=O)c2cccc(N)c2Cl)[C@H](O)C(=O)N2CCC(C)(C)[C@H]2C(=O)NCc2c(C)cccc2C)c1	0 (no)
Cc1cccc(C)c1CNC(=O)[C@H]1N(C(=O)[C@@H](O)[C@H](Cc2ccc3c(c2)OCO3)NC(=O)c2cccc(N)c2Cl)CSC1(C)C	1 (yes)
COc1cccc(C[C@H](NC(=O)c2cccc(N)c2Cl)[C@H](O)C(=O)N2CSC(C)(C)[C@H]2C(=O)NCc2c(C)cccc2C)c1	0 (no)
CCOc1ccc(C[C@H](NC(=O)c2cccc(N)c2Cl)[C@H](O)C(=O)N2CCC(C)(C)[C@H]2C(=O)NCc2c(C)cccc2C)cc1	1 (yes)
Cc1ccccc1CNC(=O)[C@H]1N(C(=O)[C@@H](O)[C@H](Cc2ccc3c(c2)OCO3)NC(=O)c2cccc(N)c2Cl)CSC1(C)C	0 (no)
COc1ccc(C[C@H](NC(=O)c2cccc(N)c2Cl)[C@H](O)C(=O)N2CSC(C)(C)[C@H]2C(=O)NCc2c(C)cccc2C)cc1	1 (yes)

Is it true that remaining at 5 µM reported for `CCOc1ccc(C[C@H](NC(=O)c2cccc(N)c2Cl)[C@H](O)C(=O)N2CSC(C)(C)[C@H]2C(=O)NCc2ccccc2C)cc1` is less than 60%?
0 (no)

---

- System: Human immunodeficiency virus 1
- PROTOCOL_SUMMARY: Antiviral activity against HIV1 3B
- Format: functional, organism-based
- EXPERIMENTAL_PARAMETERS: Human immunodeficiency virus 1, 3B
MEASURED_ATTRIBUTE: EC50

Known results for compounds:
                                item_smiles  measured_attribute     val
0  CC(C)CN(C[C@@H](O)[C@H](Cc1ccccc1)NC(=O)O[C@H]1CCOC1)S(=O)(=O)c1ccc(N)cc1                EC50   16 nM
1  CC(C)(C)NC(=O)[C@@H]1CN(Cc2cccnc2)CCN1C[C@@H](O)C[C@@H](Cc1ccccc1)C(=O)N[C@H]1c2ccccc2C[C@H]1O                EC50   23 nM
2  Cc1ccccc1CNC(=O)[C@H]1N(C(=O)[C@@H](O)[C@H](Cc2ccc3c(c2)OCO3)NC(=O)c2cccc(N)c2Cl)CSC1(C)C                EC50   20 nM
3  CC(C)c1nc(CN(C)C(=O)N[C@H](C(=O)N[C@@H](Cc2ccccc2)C[C@H](O)[C@H](Cc2ccccc2)NC(=O)OCc2cncs2)C(C)C)cs1                EC50    2 nM
4  COC(=O)N[C@H](C(=O)N[C@@H](Cc1ccccc1)[C@@H](O)CN(Cc1ccc(-c2ccccn2)cc1)NC(=O)[C@@H](NC(=O)OC)C(C)(C)C)C(C)(C)C                EC50  < 4 nM

Consider now this further compound.
What EC50 appears in the records for this compound with Human immunodeficiency virus 1? `Cc1c(O)cccc1C(=O)N[C@@H](CSc1ccccc1)[C@H](O)CN1C[C@H]2CCCC[C@H]2C[C@H]1C(=O)NC(C)(C)C`
19 nM

---

Here the recorded Stability is given for each entry.
- Tested on: Liver
- PROTOCOL_SUMMARY: Metabolic stability in dog liver microsomes assessed as compound remaining in presence of NADPH by RP-HPLC
- Format: ADME, Canis lupus familiaris, Microsome

Completed entries (count: 3):
>>> df
                                item_smiles  val
0  COc1cccc(C[C@H](NC(=O)c2cccc(N)c2Cl)[C@H](O)C(=O)N2CCC(C)(C)[C@H]2C(=O)NCc2c(C)cccc2C)c1  69%
1  COC(=O)N[C@H](C(=O)N[C@@H](Cc1ccccc1)[C@@H](O)CN(Cc1ccc(-c2ccccn2)cc1)NC(=O)[C@@H](NC(=O)OC)C(C)(C)C)C(C)(C)C  83%
2  COc1cccc(C[C@H](NC(=O)c2cccc(N)c2Cl)[C@H](O)C(=O)N2CSC(C)(C)[C@H]2C(=O)NCc2c(C)cccc2C)c1  47%

Proceed to the following item.
Please tell me: Stability of `Cc1ccccc1CNC(=O)[C@H]1N(C(=O)[C@@H](O)[C@H](Cc2ccccc2)NC(=O)c2cccc(O)c2C)CSC1(C)C` , system Liver?
49%

---

Tmax reference
- PROTOCOL_SUMMARY: Tmax in Beagle dog at 15 mg/kg, po
- Assay type: ADME, organism-based, Canis lupus familiaris
- Design: dose 15 mg/kg, route oral
- EXPERIMENTAL_PARAMETERS: in vivo
Please give a number only; it is taken to be in min.

In the examples that follow, each entry is paired with its recorded Tmax.
In [3]: df
Out[3]:
                                item_smiles  scale_unit  val
0  COc1cccc(C[C@H](NC(=O)c2cccc(N)c2Cl)[C@H](O)C(=O)N2CCC(C)(C)[C@H]2C(=O)NCc2c(C)cccc2C)c1         min   60
1  COc1cccc(C[C@H](NC(=O)c2cccc(N)c2Cl)[C@H](O)C(=O)N2CSC(C)(C)[C@H]2C(=O)NCc2c(C)cccc2C)c1         min  120
2  COC(=O)N[C@H](C(=O)N[C@@H](Cc1ccccc1)[C@@H](O)CN(Cc1ccc(-c2ccccn2)cc1)NC(=O)[C@@H](NC(=O)OC)C(C)(C)C)C(C)(C)C         min   30

Next item in the queue.
# query: Tmax of entry `Cc1ccccc1CNC(=O)[C@H]1N(C(=O)[C@@H](O)[C@H](Cc2ccccc2)NC(=O)c2cccc(O)c2C)CSC1(C)C`
30

---

- System: Human immunodeficiency virus 1
- PROTOCOL_SUMMARY: Antiviral activity against HIV1 mutant strain 3
- Assay type: functional, organism-based
pEC50: −log10 of the molar value.
Label TRUE when pEC50 >= 7; otherwise FALSE.

Tell me whether pEC50 is at least 7 here: `Cc1c(O)cccc1C(=O)N[C@@H](CSc1ccccc1)[C@H](O)CN1C[C@H]2CCCC[C@H]2C[C@H]1C(=O)NC(C)(C)C`
FALSE

Reported pEC50 at or above 7? `CC(C)(C)NC(=O)[C@@H]1C[C@@H]2CCCC[C@@H]2CN1C[C@@H](O)[C@H](Cc1ccccc1)NC(=O)[C@H](CC(N)=O)NC(=O)c1ccc2ccccc2n1`
FALSE

Determine whether this compound has pEC50 no lower than 7: Cc1cccc(C)c1OCC(=O)N[C@@H](Cc1ccccc1)[C@@H](O)C[C@H](Cc1ccccc1)NC(=O)[C@H](C(C)C)N1CCCNC1=O [LOPINAVIR]
FALSE

Tell me whether pEC50 is at least 7 here: CC(C)c1nc(CN(C)C(=O)N[C@H](C(=O)N[C@@H](Cc2ccccc2)C[C@H](O)[C@H](Cc2ccccc2)NC(=O)OCc2cncs2)C(C)C)cs1 [RITONAVIR]
FALSE

Decide: pEC50 of COC(=O)N[C@H](C(=O)N[C@@H](Cc1ccccc1)[C@@H](O)CN(Cc1ccc(-c2ccccn2)cc1)NC(=O)[C@@H](NC(=O)OC)C(C)(C)C)C(C)(C)C [ATAZANAVIR] >= 7?
TRUE

Check if pEC50 >= 7 (inclusive). Item: `CC(C)(C)NC(=O)[C@@H]1CN(Cc2cccnc2)CCN1C[C@@H](O)C[C@@H](Cc1ccccc1)C(=O)N[C@H]1c2ccccc2C[C@H]1O`
FALSE

---

- PROTOCOL_SUMMARY: Cmax in Beagle dog at 15 mg/kg, po
- Type: ADME, organism-based, Canis lupus familiaris
- Set-up: dose 15 mg/kg, route oral
- EXPERIMENTAL_PARAMETERS: in vivo
MEASURED_ATTRIBUTE: Cmax (µM)
Respond numerically; units are µM and should not be typed.

Some compounds with known Cmax results, for comparison:
In [3]: df
Out[3]:
                                item_smiles  measured_attribute  scale_unit  val
0  COc1cccc(C[C@H](NC(=O)c2cccc(N)c2Cl)[C@H](O)C(=O)N2CSC(C)(C)[C@H]2C(=O)NCc2c(C)cccc2C)c1                Cmax          µM  2.8
1  COc1cccc(C[C@H](NC(=O)c2cccc(N)c2Cl)[C@H](O)C(=O)N2CCC(C)(C)[C@H]2C(=O)NCc2c(C)cccc2C)c1                Cmax          µM    5
2  Cc1ccccc1CNC(=O)[C@H]1N(C(=O)[C@@H](O)[C@H](Cc2ccccc2)NC(=O)c2cccc(O)c2C)CSC1(C)C                Cmax          µM  3.1

For the next question, use this compound.
Which Cmax value belongs to `COC(=O)N[C@H](C(=O)N[C@@H](Cc1ccccc1)[C@@H](O)CN(Cc1ccc(-c2ccccn2)cc1)NC(=O)[C@@H](NC(=O)OC)C(C)(C)C)C(C)(C)C` ?
4.2
